Reported growth values for the following molecules.
Tested on: OVCAR-5 ovarian
protocolDetails: NCI-60 one-dose screen, 48 h (100 = growth as untreated, 0 = no growth, -100 = all killed)
measurementConditions: 10 µM unless noted
The panel holds about 83,000 compounds, 20% with a hit somewhere; the sample as a whole holds those more often. Calls of active or inactive are those of the source. The calls were made as follows: active = growth percent below 10; inactive = the rest.

[
  {
    "molecule": "C=C(C)[C@@H]1CCC[C@]2(COS(=O)(=O)c3ccc(C)cc3)CC[C@]3(C)[C@@H](CC[C@@H]4[C@@]5(C)CCCNC(C)(C)[C@@H]5CC[C@]43C)[C@@H]12",
    "growth": "63.3% (inactive)"
  },
  {
    "molecule": "O=C(CN1C(=O)S/C(=C\\C(Cl)=C\\c2ccccc2)C1=O)NCCc1ccc(O)cc1",
    "growth": "77.7% (inactive)"
  },
  {
    "molecule": "Cc1nc2sc(C(=O)Nc3cccc4ccccc34)c(N)c2cc1C(O)c1ccccc1 (stereo not drawn)",
    "growth": "37.4% (inactive)"
  },
  {
    "molecule": "CC1CCN(S(=O)(=O)c2ccc(S(=O)(=O)N3CCCC(c4nc5c(nnn5Cc5cccc(Cl)c5)c(=O)[nH]4)C3)cc2)CC1 (stereo not drawn)",
    "growth": "97.1% (inactive)"
  },
  {
    "molecule": "CC(=O)/C(=C\\c1c(-c2ccccc2)[nH]c2ccccc12)S(C)(=O)=O",
    "growth": "78.3% (inactive)"
  },
  {
    "molecule": "COc1ccc(CN2c3ccccc3Sc3ccccc32)cc1F",
    "growth": "43.1% (inactive)"
  },
  {
    "molecule": "O=C(CSc1nc2ccc([N+](=O)[O-])cc2[nH]1)Nc1ccc([N+](=O)[O-])cc1",
    "growth": "63.3% (inactive)"
  },
  {
    "molecule": "O=C(N/N=C/c1ccc(Cl)cc1)c1[nH]c2ccc(Cl)cc2c1-c1ccccc1",
    "growth": "51.5% (inactive)"
  },
  {
    "molecule": "CN(C)CC(C)(C)C(=O)/C=C/c1ccccc1",
    "growth": "-12% [25 µM] (active)"
  },
  {
    "molecule": "COc1ccc(C(=O)C/C(=C\\c2ccc(Cl)cc2)C(=O)NCc2ccccc2)cc1",
    "growth": "99.5% (inactive)"
  },
  {
    "molecule": "CCN(CC)CCn1c2ccc(O)cc2c2sc3cc(O)ccc3c(=O)c21",
    "growth": "54% (inactive)"
  },
  {
    "molecule": "Cc1ccccc1/C=C/C(=O)c1cccc(OCCCCOc2cccc(C(=O)/C=C/c3ccccc3C)c2)c1",
    "growth": "103% (inactive)"
  },
  {
    "molecule": "Cc1csc(Nc2nc(-c3ccccn3)nc(C(Cl)(Cl)Cl)n2)n1",
    "growth": "108% (inactive)"
  },
  {
    "molecule": "O=C(c1nn(-c2ccccc2)c2c1CC(NCc1ccc(F)cc1)CC2)N1CCCCC1 (stereo not drawn)",
    "growth": "103% (inactive)"
  },
  {
    "molecule": "CCCCCCCCCCCCCCCCOCCCOP(=O)(O)C1CCCN(O)C1=O (stereo not drawn)",
    "growth": "20% (inactive)"
  },
  {
    "molecule": "C=C(C)[C@@H]1CC[C@]2(C(=O)N3CCOCC3)CC[C@]3(C)[C@H](CC[C@@H]4[C@@]5(C)C/C(=C/c6ccncc6)C(=O)C(C)(C)[C@@H]5CC[C@]43C)[C@@H]12",
    "growth": "93.3% (inactive)"
  },
  {
    "molecule": "CCOC(=O)c1ccc(NC(=O)c2nc(-c3cc(OC)c(OC)c(OC)c3)n(-c3ccc(Cl)cc3)n2)cc1",
    "growth": "101% (inactive)"
  },
  {
    "molecule": "Cc1ccc(-c2nc([P+](c3ccccc3)(c3ccccc3)c3ccccc3)c(S(=O)(=O)c3ccc(C)cc3)o2)cc1",
    "growth": "25.1% (inactive)"
  }
]

----------
Tested on: SN12C renal
protocolDetails: NCI-60 one-dose screen, 48 h (100 = growth as untreated, 0 = no growth, -100 = all killed)
measurementConditions: 10 µM unless noted
About 83,000 compounds went through this panel and 20% of them were active in at least one assay; those are over-represented in the sample as a whole.
Please enter condition met where growth is greater than or equal to 70%, and condition not met where it is lower.

[
  {
    "sampleSmiles": "CC(C)COc1nc2c(c(=O)n(C)c(=O)n2C)n1C",
    "classAssignment": "condition met"
  },
  {
    "sampleSmiles": "O=C(CN1CCCCC1)Nc1nc(-c2cc3ccccc3oc2=O)cs1",
    "classAssignment": "condition met"
  },
  {
    "sampleSmiles": "O=C1/C=C/[C@@H](O)[C@@H]2C[C@@H](O)C[C@H]2/C=C/CCC[C@H](CCc2ccccc2)O1",
    "classAssignment": "condition not met"
  },
  {
    "sampleSmiles": "Nc1c(C(=O)Nc2ccccc2C(F)(F)F)sc2nc3c(cc12)CCC3",
    "classAssignment": "condition met"
  }
]

----------
System: MOLT-4 leukemia
protocolDetails: NCI-60 one-dose screen, 48 h (100 = growth as untreated, 0 = no growth, -100 = all killed)
measurementConditions: 10 µM unless noted
The panel holds about 83,000 compounds, 20% with a hit somewhere; the sample as a whole holds those more often.

[
  {
    "sampleSmiles": "C/C(=N\\O)c1ccc(Cl)cc1",
    "growth / %": 86.3
  },
  {
    "sampleSmiles": "Fc1cccc(Oc2ccc(Nc3ncnc4ccc(OCCCN5CCOCC5)cc34)cc2Cl)c1",
    "growth / %": 53.9
  },
  {
    "sampleSmiles": "CC(=O)n1nc(C(=O)OC(C)(C)c2ccccc2)c2ccccc21",
    "growth / %": 96.9
  },
  {
    "sampleSmiles": "N#Cc1nc(-c2ccc(Cl)cc2)oc1S(=O)(=O)N1CCN(c2ccc(F)cc2)CC1",
    "growth / %": 3.45
  },
  {
    "sampleSmiles": "O=C1C(Cl)=C(NCCCCCCNC2=C(Cl)C(=O)c3ccccc3C2=O)C(=O)c2ccccc21",
    "growth / %": 82.4
  },
  {
    "sampleSmiles": "CCN(CC)CCCCCNc1cc(OC(=O)c2ccc(Cl)cc2)cc2cccnc12",
    "growth / %": 72.6
  },
  {
    "sampleSmiles": "Cc1cn(-c2cc(NC(=O)c3cncc(C#Cc4cnc(N)c5ncccc45)c3)cc(C(F)(F)F)c2)cn1",
    "growth / %": 34.7
  },
  {
    "sampleSmiles": "CCOC(=O)c1nn(-c2ccc(S(N)(=O)=O)cc2)c2nc(C)cc(=O)n12",
    "growth / %": 119
  },
  {
    "sampleSmiles": "COC(=O)[C@]1(C)CCC[C@]2(C)[C@H]3C[C@H]4C(C(C)C)=C[C@]3(CC[C@H]21)[C@@H]1C(=O)CC[C@H](OCCC#N)[C@@H]14",
    "growth / %": 48.6
  }
]

----------
System: ACHN renal
protocolDetails: NCI-60 one-dose screen, 48 h (100 = growth as untreated, 0 = no growth, -100 = all killed)
measurementConditions: 10 µM unless noted
The panel holds about 83,000 compounds, 20% with a hit somewhere; the sample as a whole holds those more often.
Catalogue of growth readings, one per entry.

[
  {
    "compound": "Nc1ncnc2c1c(-c1cccc(Cl)c1)nn2CC(=O)N1CCOCC1",
    "testSystem": "ACHN renal",
    "growth (%)": 95.6
  },
  {
    "compound": "Cc1ccc(/C=C2\\COc3ccc(O)cc3C2=O)cc1",
    "testSystem": "ACHN renal",
    "growth (%)": 94
  },
  {
    "compound": "CN(/C(N)=N/N=C/c1c2ccccc2cc2ccccc12)C1CCCCC1",
    "testSystem": "ACHN renal",
    "growth (%)": 52.7
  },
  {
    "compound": "CC/C(=C(/c1ccc(Cl)cc1)c1ccc(OCCN2CCCCC2)cc1)c1ccc(OC)cc1",
    "testSystem": "ACHN renal",
    "growth (%)": 81.2
  },
  {
    "compound": "COc1ccc(/C=C/C(=O)c2cc3c(N)c(C(=O)Nc4cccc5ccccc45)sc3nc2C)cc1",
    "testSystem": "ACHN renal",
    "growth (%)": 71.8
  },
  {
    "compound": "COc1ccc(OC)c(-c2nc(SCC(=O)c3ccc(C#N)cc3)[nH]c(=O)c2C#N)c1",
    "testSystem": "ACHN renal",
    "growth (%)": 97.7
  },
  {
    "compound": "N#Cc1ccc2c(c1)C(=O)c1c-2n(CCCN)c(=O)c2cc([N+](=O)[O-])ccc12",
    "testSystem": "ACHN renal",
    "growth (%)": -100
  },
  {
    "compound": "Cc1c(-c2ccc(O)cc2)n(Cc2ccc(OCCN3CCCCCC3)cc2)c2ccc(O)cc12",
    "testSystem": "ACHN renal",
    "growth (%)": 91.9
  },
  {
    "compound": "Cc1ccc(C)n1-c1ccccc1-n1c(C)ccc1C",
    "testSystem": "ACHN renal",
    "growth (%)": 102
  },
  {
    "compound": "N#CC(C#N)N=Nc1ccc(Br)cc1",
    "testSystem": "ACHN renal",
    "growth (%)": 16.6
  },
  {
    "compound": "CCc1ccccc1-n1c(-c2ccc(OC)cc2)cc(-c2ccc(OC)cc2)c(C#N)c1=O",
    "testSystem": "ACHN renal",
    "growth (%)": 61.6
  },
  {
    "compound": "COc1ccc(C2CC(c3ccc(Nc4nc(Nc5ccccc5)nc(Nc5ccccc5)n4)cc3)=NN2C(C)=O)cc1 (stereo unspecified)",
    "testSystem": "ACHN renal",
    "growth (%)": 100
  },
  {
    "compound": "COc1ccc(C(=O)c2cc3c(N)c(C(=O)Nc4ccc(C)cc4)sc3nc2C)cc1",
    "testSystem": "ACHN renal",
    "growth (%)": 46.8
  },
  {
    "compound": "Cn1cc(-c2csc(-c3c[nH]c4ccccc34)n2)c2cnccc21",
    "testSystem": "ACHN renal",
    "growth (%)": -4.48
  },
  {
    "compound": "O=C(N/N=C/c1c(Cl)cccc1Cl)c1cccnc1Nc1cccc(C(F)(F)F)c1",
    "testSystem": "ACHN renal",
    "growth (%)": 29.6
  },
  {
    "compound": "O=C1Nc2ccccc2/C1=C/c1cccn1CCCCn1c2ccccc2c(=O)c2ccccc21",
    "testSystem": "ACHN renal",
    "growth (%)": 76.3
  },
  {
    "compound": "OCCn1cc(-c2nc(-c3c[nH]c4ncccc34)cs2)c2cc(F)ccc21",
    "testSystem": "ACHN renal",
    "growth (%)": 65.8
  },
  {
    "compound": "N=C(N)c1ccc(-c2ccc(-c3ccccc3)o2)cc1",
    "testSystem": "ACHN renal",
    "growth (%)": -65.9
  },
  {
    "compound": "Nc1ncnc2c1C(c1ccc(Br)cc1)c1sc3c(F)cccc3c1O2 (stereo unspecified)",
    "testSystem": "ACHN renal",
    "growth (%)": 93.7
  },
  {
    "compound": "COC(=O)c1c(C)c2n(c1C)C(=O)C(c1ccccc1)=C2",
    "testSystem": "ACHN renal",
    "growth (%)": 74
  },
  {
    "compound": "Cn1cc(-c2ccc3nc(-c4ccc(CC(=O)ONc5cc(C(C)(C)C)on5)cc4)cnc3c2)cn1",
    "testSystem": "ACHN renal",
    "growth (%)": 13.4
  }
]
